Ref: patent US20250313572A1

Give measured Ki for each item. Keep answers brief.
- target-of-assay: GST-MCL-1 (Homo sapiens)
- Sequence (Q07820 whole entry): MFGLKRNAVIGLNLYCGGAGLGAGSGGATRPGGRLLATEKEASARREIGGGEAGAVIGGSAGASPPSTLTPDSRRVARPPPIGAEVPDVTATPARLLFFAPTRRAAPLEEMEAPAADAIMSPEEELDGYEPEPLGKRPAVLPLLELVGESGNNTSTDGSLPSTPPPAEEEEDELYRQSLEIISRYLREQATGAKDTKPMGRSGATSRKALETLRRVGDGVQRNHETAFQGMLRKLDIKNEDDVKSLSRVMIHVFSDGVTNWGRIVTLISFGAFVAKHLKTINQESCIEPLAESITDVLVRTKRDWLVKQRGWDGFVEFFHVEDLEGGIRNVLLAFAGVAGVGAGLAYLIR
- experiment: TR-FRET MCL-1 binding assay (competition with probe F-Bak)
- run-conditions: MCL-1 Binding Ki (nM, 10% HS), in the presence of 10% HS (human serum)

COCCOCCOCCOCCOCCOC1(c2nccc(COc3ccc4cc3C[C@H](C(=O)O)Oc3ncnc5sc(-c6ccc(F)cc6)c(c35)-c3c(C)c(Cl)c(c(Cl)c3C)O[C@H](CN3CCN(C)CC3)CO4)n2)CCC1 yielded Ki of 0.148 nM

Sure, the documented Ki for Cc1c(Cl)c2c(Cl)c(C)c1-c1c(-c3ccc(F)cc3)sc3ncnc(c13)O[C@@H](C(=O)O)Cc1cc(ccc1OCc1ccnc(-c3ccc(OC[C@H]4COCCN4C)cc3)n1)OC[C@@H](CN1CCN(C)CC1)O2 is 0.285 nM

Entry COCCOCCOCC1CN(c2nccc(COc3ccc4cc3C[C@@H](C(=O)O)Oc3ncnc5sc(-c6ccc(F)cc6)c(c35)-c3c(C)c(Cl)c(c(Cl)c3C)O[C@H](CN3CCN(C)CC3)CO4)n2)C1 — recorded Ki = 166 nM
